src = the supplement of paper PMC7125110

B1: glmS ribozyme (parent)
chain: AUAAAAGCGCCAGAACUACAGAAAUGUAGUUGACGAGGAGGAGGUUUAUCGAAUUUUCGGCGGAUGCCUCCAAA

Variants of: B1
method summary: self-cleavage kobs at 40 uM GlcN6P; higher = faster cleavage; RNA array
condition description: with glucosamine-6-phosphate
Fewer inactive variants are shown than the library holds.
The reader will find reported self-cleavage kobs at 40 uM GlcN6P values listed item by item below.

Please review the entries below; each comes with its answer.
>>> df
   mutation_label                  attribute_measured    data_value
0       A36C A42U  self-cleavage kobs at 40 uM GlcN6P   < 1e-05 s⁻¹
1       G29A A48G  self-cleavage kobs at 40 uM GlcN6P   < 1e-05 s⁻¹
2       A14U U55G  self-cleavage kobs at 40 uM GlcN6P  0.000209 s⁻¹
3  A48C C67U C71A  self-cleavage kobs at 40 uM GlcN6P   < 1e-05 s⁻¹
4  G32U G63U C71A  self-cleavage kobs at 40 uM GlcN6P   < 1e-05 s⁻¹

Ask: Recorded self-cleavage kobs at 40 uM GlcN6P of A53C U55G , please.
Result: 0.000162 s⁻¹

Ask: And then G9A U55G , what is it?
Result: < 1e-05 s⁻¹

Ask: And then G37U G60C , what is it?
Result: < 1e-05 s⁻¹

Ask: And then U46A , what is it?
Result: 9.25e-05 s⁻¹

Ask: And then G44A U69A , what is it?
Result: < 1e-05 s⁻¹

Ask: And then U54C U65G , what is it?
Result: 5.43e-05 s⁻¹

Ask: And then G62U C71A , what is it?
Result: < 1e-05 s⁻¹

Ask: And then G38U G66A U69G , what is it?
Result: 4.77e-05 s⁻¹

Ask: And then C50G G63A C68A U69C , what is it?
Result: 0.000106 s⁻¹
